All figures here come from PubChem BioAssay (EPA / NIEHS).

Target: Oxysterols receptor LXR-alpha (Homo sapiens) (UniProt Q13133)
Sequence (Q13133 whole entry, looked up): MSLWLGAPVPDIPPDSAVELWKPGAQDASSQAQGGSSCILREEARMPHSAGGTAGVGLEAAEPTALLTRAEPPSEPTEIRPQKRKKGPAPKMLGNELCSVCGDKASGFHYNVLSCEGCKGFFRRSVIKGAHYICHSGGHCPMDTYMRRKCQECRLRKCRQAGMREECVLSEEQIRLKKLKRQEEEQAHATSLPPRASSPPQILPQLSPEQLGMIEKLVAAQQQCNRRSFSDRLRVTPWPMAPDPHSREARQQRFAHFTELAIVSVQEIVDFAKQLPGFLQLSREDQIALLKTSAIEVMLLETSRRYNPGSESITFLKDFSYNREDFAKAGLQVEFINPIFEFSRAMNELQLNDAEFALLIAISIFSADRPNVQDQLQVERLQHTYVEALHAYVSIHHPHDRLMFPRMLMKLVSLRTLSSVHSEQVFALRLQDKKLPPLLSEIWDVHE
Assay: ATG_LXRa_TRANS: Attagene TRANS-FACTORIAL HepG2 Assay for human Liver X Receptor alpha (LXRa) (AID 2282980)
Conditions: HepG2 Attagene TRANS reporter, LXRa transactivation
Inconclusive results are not listed. Activity calls are given as the source filed them. The calls were made as follows: active = hit-call score of the fitted dose curve at least 0.9, where 1 is the maximum; inconclusive = response in the unintended direction; inactive = score below 0.9.
The categories you may choose from are active, inactive

In [3]: df
Out[3]:
                                   compound                            assayed_system     label
0  COc1cc(C(=O)NC2CCN(C)CC2)ccc1Nc1ncc2c(n1)N(C1CCCC1)CC(F)(F)C(=O)N2C  Oxysterols receptor LXR-alpha (Homo sapiens) (UniProt Q13133)  inactive

Problem: Returns: the outcome recorded for c1ccc2n[nH]nc2c1 in this assay.
Result: inactive

Problem: // same read-out, input: O=C(O)c1ccccc1-n1cc(C(=O)O)c(=O)c2cc(Nc3c(F)cc(F)cc3Cl)c(Cl)cc21
Result: inactive

Problem: Same question for CC1=CC(=O)/C(=C(/C)O)C(=O)O1 please.
Result: inactive

Problem: Another compound to look at: O=C1O[C@H]([C@@H](O)CO)C(O)=C1O
Result: inactive

Problem: Then this compound: Cc1c2ccccc2c(C)c2c1ccc1ccccc12
Result: inactive

Problem: Same again, this time with O=C(Nc1ccc(Cl)cc1)Nc1ccc(Cl)c(Cl)c1
Result: inactive

###

Read-out: Cytochrome P450 (CYP2B6), CYP2B6 (gene 1555)
Experiment: LTEA_HepaRG_CYP2B6: Life Technologies and Expression Analysis (LTEA) Assay for Cytochrome P450 (CYP2B6) using HepaRG (AID 2283481)
Conditions: mRNA level, 48 h; actives raise or lower the signal
Activity calls are given as the source filed them. Rule for the calls: active = hit-call score of the fitted dose curve at least 0.9, where 1 is the maximum; inactive = score below 0.9.
Assign a class; possible classes are active, inactive

     query_smiles   label
0  c1ccc2ccccc2c1  active

Problem: Entry CCN(Cc1cccnc1)C(=O)c1cccc(Cl)c1[C@]1(C)C(=O)N(Cc2ccc(OC)cc2OC)c2ccc(Cl)cc21 : call = ?
Result: active

Problem: Now the compound CC[C@@H]1C[C@H](N(Cc2cc(C(F)(F)F)cc(C(F)(F)F)c2)C(C)=O)c2cc(C(F)(F)F)ccc2N1C(=O)OC(C)C
Result: active

Problem: Please give the result for O=c1c(-c2ccc(O)cc2)coc2cc(O)cc(O)c12 too.
Result: inactive

Problem: Also CC(C)(O)c1ccc(CNC(=O)c2cccnc2Oc2ccc3nonc3c2)cc1 , if possible.
Result: active

Problem: Can you handle CC(C)(c1cc(Br)c(O)c(Br)c1)c1cc(Br)c(O)c(Br)c1 next?
Result: active

Problem: Same question, O=C(OCCCCCCOC(=O)c1ccccc1)c1ccccc1 this time
Result: inactive

Problem: Another compound to check: COc1ccc2cc(S(=O)(=O)N[C@H](CC(=O)N[C@H](Cc3ccc(CN4[C@H](C)CCC[C@@H]4C)cc3)C(=O)N(C)C(C)C)c3ccc4c(c3)OCO4)ccc2c1
Result: active

Problem: Also O=C(Nc1ccc(Cl)cc1)Nc1ccc(Cl)c(Cl)c1 , if possible.
Result: active

###

Read-out: MYC, MYC (gene 4609)
Test: LTEA_HepaRG_MYC: Life Technologies and Expression Analysis (LTEA) Assay for MYC using HepaRG (AID 2283518)
Conditions: mRNA level, 48 h; actives raise or lower the signal
Calls of active or inactive are those of the source. Rule for the calls: active = hit-call score of the fitted dose curve at least 0.9, where 1 is the maximum; inactive = score below 0.9.
Field 'call' accepts Y (active), N (inactive)

Problem: So what was the verdict on CC(=O)N1CCN(c2ccc(OC[C@H]3CO[C@](Cn4ccnc4)(c4ccc(Cl)cc4Cl)O3)cc2)CC1 in this test?
Result: Y

Problem: Another compound to check: CCCCCCCCCCCO
Result: N

Problem: Ok, now c1ccc2n[nH]nc2c1
Result: N

Problem: Same question, Cc1ccc2oc(CN(Cc3ccccc3)C(=O)Nc3c(F)cc(F)cc3F)c(-c3ccc(Cl)cc3)c2c1 this time
Result: Y

Problem: Also, COCC(C)OCC(C)OCC(C)O (stereo unspecified) please.
Result: N

Problem: Record: CCCCCCCCCCCCO
Result: N

Problem: Now give it for COc1cccc([C@H](O)C2CCN(CCc3ccc(F)cc3)CC2)c1OC too.
Result: N

Problem: Follow-up entry: Clc1ccccc1C(c1ccccc1)(c1ccccc1)n1ccnc1
Result: Y

Problem: Param item: CCCCOC(=O)CC(CC(=O)OCCCC)(OC(C)=O)C(=O)OCCCC
Result: N

Problem: Now the compound Cc1cccc2ccccc12
Result: N

Problem: Follow-up entry: COc1cc(C(=O)NC2CCN(C)CC2)ccc1Nc1ncc2c(n1)N(C1CCCC1)CC(F)(F)C(=O)N2C
Result: Y

Problem: Continue with O=c1[nH]sc2ccccc12
Result: N

Problem: Try this compound too: O=c1ccc2ccccc2o1
Result: N

Problem: Try this compound next: CCCCCCCCN(C)CCCCCCCC
Result: N

Problem: Further, for CC/C(=C(/CC)c1ccc(O)cc1)c1ccc(O)cc1 ?
Result: N

Problem: Same thing, different compound: O=C1c2ccccc2C(=O)N1CCc1noc(-c2ccc(CN3CCCCCC3)s2)n1
Result: N

Problem: Subsequent entry: CCO[Si](CCCNC(N)=O)(OCC)OCC
Result: N

Problem: Can you handle CCCOC(=O)c1cc(O)c(O)c(O)c1 next?
Result: N

Problem: # iterate: O=C(O)c1ccccc1-n1cc(C(=O)O)c(=O)c2cc(Nc3c(F)cc(F)cc3Cl)c(Cl)cc21
Result: N

Problem: Follow-up entry: O=C(OCCCCCCOC(=O)c1ccccc1)c1ccccc1
Result: N

Problem: Here is the next compound: CCN(CC)C(=O)c1cc(S(=O)(=O)Cc2ccccc2)c(N2CCC(c3ccccc3)CC2)cc1N(CC)CCN(C)C
Result: N

Problem: Now the same for Cc1occc1C(=O)Nc1ccc(C(=O)N2CCC(F)(F)/C(=C\C(=O)N3CCC(N4CCCCC4)CC3)c3ccccc32)cc1
Result: N

Problem: Note, next up: Cc1oc2c(NC(=O)c3c(Cl)cccc3Cl)cccc2c1C(C)(C)O
Result: Y

Problem: Could you do the same for CC1=CC(=O)/C(=C(/C)O)C(=O)O1 , please?
Result: N

Problem: Try this compound next: CCCCOC(=O)c1ccc(O)cc1
Result: N

Problem: Param item: CN(C[C@@H](CC[N+]12CCC(C3CCCCC3)(CC1)CC2)c1ccc(Cl)c(Cl)c1)C(=O)c1cc(C(F)(F)F)cc(C(F)(F)F)c1
Result: Y

###

Read-out: Human Leukocyte Antigen - DR isotype (HLADR), HLA-DRA (gene 3122)
Assay: BSK_BE3C_HLADR: BioMAP Diversity Plus: BE3C Assay for Human Leukocyte Antigen - DR isotype (HLADR) Biomarker Activity (AID 2283032)
Details: primary human bronchial epithelial cells; actives raise or lower the signal
Calls of active or inactive are those of the source. The calls were made as follows: active = hit-call score of the fitted dose curve at least 0.9, where 1 is the maximum; inactive = score below 0.9.
Select the matching outcome among Yes for active, No for inactive

Illustrative cases are given below, each with its answer.
query.smiles	label
C[C@]12CC[C@@H]3c4ccc(O)cc4CC[C@H]3[C@@H]1CC[C@H]2O	No
O=c1ccc2ccccc2o1	No
Cc1cn([C@H]2C[C@H](N=[N+]=[N-])[C@@H](CO)O2)c(=O)[nH]c1=O	No
O=C(O)Cn1c(=O)n(Cc2ccc(Br)cc2F)c(=O)c2ccc(Cl)cc21	No
CCCC(=O)OCCC(C)C	No

Problem: Recorded test call requested for O=C(OCCCCCCOC(=O)c1ccccc1)c1ccccc1
Result: No

Problem: Subsequent entry: CCN(CC)C(=O)c1cc(S(=O)(=O)Cc2ccccc2)c(N2CCC(c3ccccc3)CC2)cc1N(CC)CCN(C)C
Result: Yes

Problem: How about CCCCCCCCCCCO ?
Result: No

Problem: Next compound up: CO[C@H]1/C=C/O[C@@]2(C)Oc3c(C)c(O)c4c(O)c(c(/C=N/N5CCN(C)CC5)c(O)c4c3C2=O)NC(=O)/C(C)=C\C=C\[C@H](C)[C@H](O)[C@@H](C)[C@@H](O)[C@@H](C)[C@H](OC(C)=O)[C@@H]1C
Result: No

Problem: Next entry: CC(C)(c1cc(Br)c(O)c(Br)c1)c1cc(Br)c(O)c(Br)c1
Result: Yes

###

Read-out: Thyroid Hormone Responsive (THRSP), THRSP (gene 7069)
Experiment: LTEA_HepaRG_THRSP: Life Technologies and Expression Analysis (LTEA) Assay for Thyroid Hormone Responsive (THRSP) using HepaRG (AID 2283536)
Conditions: mRNA level, 48 h; actives raise or lower the signal
Active and inactive are the calls of the source. Rule for the calls: active = hit-call score of the fitted dose curve at least 0.9, where 1 is the maximum; inactive = score below 0.9.
Pick one and only one: active, inactive

Solved entries (count: 3):
molecule	label
O=C(O)Cc1cc(I)c(Oc2ccc(O)c(I)c2)c(I)c1	active
CCCCCCCCN(C)CCCCCCCC	inactive
CC[C@@H]1C[C@H](N(Cc2cc(C(F)(F)F)cc(C(F)(F)F)c2)C(C)=O)c2cc(C(F)(F)F)ccc2N1C(=O)OC(C)C	inactive

Problem: How was CCCCCCCCOc1ccc(C(=O)c2ccccc2)c(O)c1 classified in this test?
Result: inactive

Problem: Further, for CCCCCCCCCCCCO ?
Result: inactive

Problem: Cool, now Cc1ccc(C(C)C)cc1
Result: inactive

Problem: Would you mind doing c1ccc(C[n+]2cccc3ccccc32)cc1 as well?
Result: active
